- experimentalSystem: Z-AAT (Homo sapiens, UniProt P01009, E366K)
- Sequence (P01009 25-418 E366K): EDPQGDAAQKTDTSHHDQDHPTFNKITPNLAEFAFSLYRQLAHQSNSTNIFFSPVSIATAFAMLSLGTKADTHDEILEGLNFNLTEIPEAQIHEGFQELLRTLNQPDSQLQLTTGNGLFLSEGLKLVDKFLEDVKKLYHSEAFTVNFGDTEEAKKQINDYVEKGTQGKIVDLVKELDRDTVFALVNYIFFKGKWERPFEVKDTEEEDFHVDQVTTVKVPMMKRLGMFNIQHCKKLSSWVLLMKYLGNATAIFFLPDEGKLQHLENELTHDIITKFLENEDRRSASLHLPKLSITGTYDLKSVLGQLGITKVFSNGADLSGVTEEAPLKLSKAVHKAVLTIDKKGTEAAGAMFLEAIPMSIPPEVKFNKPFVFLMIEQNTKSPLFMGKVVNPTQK
- experiment: Biochemical Assay (Z-AAT Elastase Activity Assay)
- cond: purified Z-AAT protein from human plasma and purified human neutrophil elastase; 1 hour pre-incubation with compound
Assignment: determine reported IC50 for the given molecules.

{"sampleSmiles": "COc1cc(F)cc(-n2c(C(C)C)c([C@H]3CC[C@H](C(=O)O)CC3)c3nc4[nH]ncc4cc32)c1", "IC50": "> 3 µM"}
{"sampleSmiles": "CC(C)c1c([C@H]2CC[C@H](C(=O)O)CC2)c2nc3[nH]ncc3cc2n1-c1ccc(F)c(O)c1", "IC50": "> 3 µM"}
{"sampleSmiles": "Cc1cc(-n2c(C(C)(C)CC#N)c([C@H]3CC[C@H](C(=O)O)CC3)c3nc4[nH]ncc4cc32)ccc1F", "IC50": "> 30 µM"}
{"sampleSmiles": "CC(C)c1c([C@H]2CC[C@H](C(=O)O)CC2)c2nc3[nH]ncc3cc2n1-c1cc(F)cc(F)c1", "IC50": "> 3 µM"}
{"sampleSmiles": "CC(C)c1c([C@H]2CC[C@H](C(=O)O)CC2)c2nc3[nH]ncc3cc2n1-c1ccc(F)c(Cl)c1", "IC50": "> 3 µM"}

Hello, I would appreciate it if you could give IC50 for each entry below.
1. COc1cc(-n2c(C(C)C)c(CCC(=O)O)c3c(F)c4[nH]ncc4cc32)ccc1F
2. CC(C)c1c(C[C@@H](O)C(=O)O)c2cc3[nH]ncc3cc2n1-c1ccc(F)c(F)c1

## Result
1. > 30 µM
2. > 30 µM

----------
- experimentalSystem: Z-AAT (Homo sapiens, UniProt P01009, E366K)
- experiment: AAT Function Assay (MSD Assay NL20-SI Cell Line)
- cond: NL20 human bronchial epithelial cells expressing human Z-AAT; functionally active AAT measured as complex with hNE (MSD); read-out: NL20 Functional EC50
pEC50: −log10 of the molar value.
Assignment: determine reported pEC50 for the given compounds.

{"compound": "COc1cc(-n2c(C(C)C)c(CCC(=O)O)c3c(F)c4[nH]ncc4cc32)ccc1F", "pEC50": "> 5.94"}
{"compound": "CCC1(c2c([C@H]3CC[C@H](C(=O)O)CC3)c3nc4[nH]ncc4cc3n2-c2ccc(F)c(OC)c2)COC1", "pEC50": "< 5.52"}
{"compound": "CC(C)c1c(CCC(=O)O)c2cc3[nH]nc(Cl)c3cc2n1-c1ccc(F)cc1", "pEC50": "> 5.94"}

Hello, I would appreciate it if you could give pEC50 for each entry below.
1. COCC(C)(C)c1c([C@H]2CC[C@H](C(=O)O)CC2)c2nc3[nH]ncc3cc2n1-c1ccc(F)c(OC)c1
2. C[C@]1(C(=O)O)C[C@H](c2c(C3CCCOC3)n(-c3ccc(F)c(F)c3)c3cc4cn[nH]c4cc32)C1 (some centres unmarked)

## Result
1: 5.52 to 5.94; 2: 5.52 to 5.94

----------
Assignment: determine reported EC50 for the given molecules.
- experimentalSystem: Z-AAT (Homo sapiens, UniProt P01009, E366K)
- experiment: AAT Function Assay (MSD Assay NL20-SI Cell Line)
- cond: NL20 human bronchial epithelial cells expressing human Z-AAT; functionally active AAT measured as complex with hNE (MSD); read-out: NL20 Functional EC50

{"molecule": "COc1cc(-n2c(C3CCOCC3)c([C@H]3CC[C@H](C(=O)O)CC3)c3c(F)c4[nH]ncc4cc32)ccc1F", "EC50": "< 1.16 µM"}

Hello, I would appreciate it if you could give EC50 for each entry below.
1. CC(C)c1c(C2CCC(O)(C(N)=O)CC2)c2cc3[nH]ncc3cc2n1-c1ccc(F)c(F)c1 (stereo not shown)
2. COc1cc(-n2c(C(C)C)c(CC3(C(=O)O)CC3)c3cc4[nH]ncc4cc32)ccc1F
3. CC(C)c1c(CC(C)(C)C(=O)O)c2cc3[nH]ncc3cc2n1-c1ccc(F)cc1
4. COCC1(c2c([C@H]3CC[C@H](C(=O)O)CC3)c3nc4[nH]ncc4cc3n2-c2ccc(F)c(OC)c2)CCC1
5. CC(C)c1c(C2=COC(C(=O)O)C2)c2cc3[nH]ncc3cc2n1-c1ccc(F)c(F)c1 (stereo not shown)

## Result
1: > 3 µM; 2: < 1.16 µM; 3: 1.16 to 3 µM; 4: 1.16 to 3 µM; 5: > 3 µM
